Values were extracted from the supplement of paper PMC12645437.

# testedTarget: T1, CRBN, Q96SW2;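 note: pooled lentiviral library of zinc finger degron-EGFP fusions in mCherry-positive Jurkat cells, FACS-sorted after compound exposure, with degron abundance counted by next-generation sequencing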
# T1 chain: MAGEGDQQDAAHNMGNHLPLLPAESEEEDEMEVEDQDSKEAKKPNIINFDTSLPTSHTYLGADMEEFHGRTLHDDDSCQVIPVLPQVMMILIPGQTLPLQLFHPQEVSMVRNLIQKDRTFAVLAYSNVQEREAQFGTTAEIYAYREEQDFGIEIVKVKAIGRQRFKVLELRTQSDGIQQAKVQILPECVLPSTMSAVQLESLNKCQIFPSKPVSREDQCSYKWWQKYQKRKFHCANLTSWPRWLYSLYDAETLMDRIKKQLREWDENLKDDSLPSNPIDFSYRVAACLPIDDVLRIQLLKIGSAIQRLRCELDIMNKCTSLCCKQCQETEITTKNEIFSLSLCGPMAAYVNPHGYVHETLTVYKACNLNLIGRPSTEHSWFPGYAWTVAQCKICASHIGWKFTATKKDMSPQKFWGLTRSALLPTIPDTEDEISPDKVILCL
# experimentalDetails: log2 fold change of degron read counts, EGFP-low vs EGFP+ sorted cells (limma voom), compound-induced degradation; higher = more compound-induced degradation of the degron-EGFP fusion; degrons are variants of IKZF1/3 zinc finger 2; compound dose not given here
# conditions: Jurkat; 18 h; compound: compound 19 (5-tert-butyl-thalidomide)
The full ranking holds about 8,300 sequences; the median of “log2 fold change of degron read counts, EGFP-low vs EGFP+ sorted cells (limma voom), compound-induced degradation” is about -1.1, and the highest 2% start at about 3.2. The list comes from a sample in which the highest values are over-represented; it also holds close analogues and randomly drawn sequences.
In this section, each of the sequences is paired with its reported log2 fold change of degron read counts.
Could you keep your reply to the number by itself?

Consider the reported log2 fold change of degron read counts for these sequences:
seq="FACPICGADFTQKGNLLRHIKL [46F_47A_49P_50I_52G_53A_54D_55F_67L_, Q9UKT9]" reportedproperty="log2 fold change of degron read counts" recordedresult=2.75
seq="FICPQCGADFTQKGNLLRHIKL [46F_47I_49P_50Q_52G_53A_54D_55F_67L_, Q9UKT9]" reportedproperty="log2 fold change of degron read counts" recordedresult=-3.68
seq="FWCPICGAGFTQKGNLLRHIKL [46F_47W_49P_50I_52G_53A_54G_55F_67L_, Q9UKT9]" reportedproperty="log2 fold change of degron read counts" recordedresult=3.3
seq="FVCNQCGHTFTQKGNLLRHIKL [46F_47V_49N_50Q_52G_53H_54T_55F_67L_, Q9UKT9]" reportedproperty="log2 fold change of degron read counts" recordedresult=-3.49
seq="FTCEQCGATFTQKGNLLRHIKL [46F_47T_49E_50Q_52G_53A_54T_55F_67L_, Q9UKT9]" reportedproperty="log2 fold change of degron read counts" recordedresult=-2.43
seq="FSCPICGAGFTQKGNLLRHIKL [46F_47S_49P_50I_52G_53A_54G_55F_67L_, Q9UKT9]" reportedproperty="log2 fold change of degron read counts" recordedresult=2.83

For the sequence FQCPICGAGFTQKGNLLRHIKL [46F_47Q_49P_50I_52G_53A_54G_55F_67L_, Q9UKT9] , what log2 fold change of degron read counts is on record?
2.39

For the sequence FYCPICGAGFTQKGNLLRHIKL [46F_47Y_49P_50I_52G_53A_54G_55F_67L_, Q9UKT9] , what log2 fold change of degron read counts is on record?
2.99

For the sequence FLCPICGREFTQKGNLLRHIKL [46F_47L_49P_50I_52G_53R_54E_55F_67L_, Q9UKT9] , what log2 fold change of degron read counts is on record?
-2.12

For the sequence FLCDICGASFTQKGNLLRHIKL [46F_47L_49D_50I_52G_53A_54S_55F_67L_, Q9UKT9] , what log2 fold change of degron read counts is on record?
0.329

For the sequence FQCNVCGACFTQKGNLLRHIKL [46F_47Q_49N_50V_52G_53A_54C_55F_67L_, Q9UKT9] , what log2 fold change of degron read counts is on record?
-1.23

For the sequence FNCSVCGHNFTQKGNLLRHIKL [46F_47N_49S_50V_52G_53H_54N_55F_67L_, Q9UKT9] , what log2 fold change of degron read counts is on record?
-2.71

For the sequence FICEICGRSFTQKGNLLRHIKL [46F_47I_49E_50I_52G_53R_54S_55F_67L_, Q9UKT9] , what log2 fold change of degron read counts is on record?
-2.87

For the sequence FTCEQCGAHFTQKGNLLRHIKL [46F_47T_49E_50Q_52G_53A_54H_55F_67L_, Q9UKT9] , what log2 fold change of degron read counts is on record?
-1.82

For the sequence FQCPICGRPFTQKGNLLRHIKL [46F_47Q_49P_50I_52G_53R_54P_55F_67L_, Q9UKT9] , what log2 fold change of degron read counts is on record?
0.103

For the sequence LACEICGFECTQKGNLLRHIKL [46L_47A_49E_50I_52G_53F_54E_55C_67L_, Q9UKT9] , what log2 fold change of degron read counts is on record?
0.602

For the sequence FCCSVCGHKFTQKGNLLRHIKL [46F_47C_49S_50V_52G_53H_54K_55F_67L_, Q9UKT9] , what log2 fold change of degron read counts is on record?
-2

For the sequence FACPICGAMFTQKGNLLRHIKL [46F_47A_49P_50I_52G_53A_54M_55F_67L_, Q9UKT9] , what log2 fold change of degron read counts is on record?
2.8

For the sequence FHCPICGHHFTQKGNLLRHIKL [46F_47H_49P_50I_52G_53H_54H_55F_67L_, Q9UKT9] , what log2 fold change of degron read counts is on record?
-1.89

For the sequence LLCNQCGFPCTQKGNLLRHIKL [46L_47L_49N_50Q_52G_53F_54P_55C_67L_, Q9UKT9] , what log2 fold change of degron read counts is on record?
-1.89

For the sequence FRCEQCGALFTQKGNLLRHIKL [46F_47R_49E_50Q_52G_53A_54L_55F_67L_, Q9UKT9] , what log2 fold change of degron read counts is on record?
-3.49

For the sequence FLCPICGAGFTQKGNLLRHIKL [46F_47L_49P_50I_52G_53A_54G_55F_67L_, Q9UKT9] , what log2 fold change of degron read counts is on record?
1.86

For the sequence FVCPICGAGFTQKGNLLRHIKL [46F_47V_49P_50I_52G_53A_54G_55F_67L_, Q9UKT9] , what log2 fold change of degron read counts is on record?
1.09

For the sequence FGCNVCGAWFTQKGNLLRHIKL [46F_47G_49N_50V_52G_53A_54W_55F_67L_, Q9UKT9] , what log2 fold change of degron read counts is on record?
-1.56

For the sequence FNCPICGHAFTQKGNLLRHIKL [46F_47N_49P_50I_52G_53H_54A_55F_67L_, Q9UKT9] , what log2 fold change of degron read counts is on record?
-1.92

For the sequence FSCDQCGALFTQKGNLLRHIKL [46F_47S_49D_50Q_52G_53A_54L_55F_67L_, Q9UKT9] , what log2 fold change of degron read counts is on record?
-2.6

For the sequence FICPICGHFFTQKGNLLRHIKL [46F_47I_49P_50I_52G_53H_54F_55F_67L_, Q9UKT9] , what log2 fold change of degron read counts is on record?
-1.6

For the sequence LKCEICGFTCTQKGNLLRHIKL [46L_47K_49E_50I_52G_53F_54T_55C_67L_, Q9UKT9] , what log2 fold change of degron read counts is on record?
-1

For the sequence FWCPQCGARFTQKGNLLRHIKL [46F_47W_49P_50Q_52G_53A_54R_55F_67L_, Q9UKT9] , what log2 fold change of degron read counts is on record?
0.926
